Exercise: state measured Ki for each of the molecules provided.
Biological target: CNS nicotinic receptors
Experiment: Inhibition of L-[3H]nicotine binding to rat brain membrane preparations
Conditions: 10 nM L-[3H]nicotine, 2 hr at 4° C., rat brain membranes; calculated from IC50 (Cheng et al.)
Answers are plain numbers, in µM.

Example molecules with recorded Ki:
- Molecule: "CN1[C@H](c2cccnc2)[C@@H]2C=C[C@H]1C2 (relative stereo)"
  Assay system: "CNS nicotinic receptors"
  Ki / µM: 0.003
- Molecule: "CN1[C@H](c2cncc(Br)c2)[C@@H]2C=C[C@H]1C2 (relative stereo)"
  Assay system: "CNS nicotinic receptors"
  Ki / µM: 2.1
- Molecule: "CCN1[C@H](c2cccnc2)[C@@H]2C=C[C@H]1C2 (relative stereo)"
  Assay system: "CNS nicotinic receptors"
  Ki / µM: 7.82
- Molecule: "O=C(O)/C=C/C(=O)O.c1cncc(C2NC3CCC2CC3)c1 (racemic) [compound 5, fumarate]"
  Assay system: "CNS nicotinic receptors"
  Ki / µM: 0.035
- Molecule: "CN1[C@H]2C=C[C@H](CC2)[C@@H]1c1cccnc1 (relative stereo)"
  Assay system: "CNS nicotinic receptors"
  Ki / µM: 0.033
- Molecule: "COc1ccc(CN2[C@H](c3cccnc3)[C@@H]3C=C[C@H]2C3)cc1 (relative stereo)"
  Assay system: "CNS nicotinic receptors"
  Ki / µM: 80.8
- Molecule: "C1=C[C@H]2C[C@@H]1[C@@H](c1cccnc1)N2Cc1ccccc1 (relative stereo)"
  Assay system: "CNS nicotinic receptors"
  Ki / µM: 141
- Molecule: "CN1[C@H](c2cccnc2)[C@@H]2C=C[C@H]1CC2 (relative stereo)"
  Assay system: "CNS nicotinic receptors"
  Ki / µM: 6.36
- Molecule: "CN1[C@H]2C=C[C@H](C2)[C@@H]1c1cccnc1 (relative stereo)"
  Assay system: "CNS nicotinic receptors"
  Ki / µM: 0.009
- Molecule: "C1=C[C@H]2CC[C@@H]1[C@@H](c1cccnc1)N2 (relative stereo)"
  Assay system: "CNS nicotinic receptors"
  Ki / µM: 0.476

Your task in this section: give Ki for each listed record.
1. C1=C[C@H]2CC[C@@H]1[C@H](c1cccnc1)N2 (relative stereo)
2. CN1C2CCC(CC2)C1c1cccnc1 (racemic)

Result ::
1: 0.002; 2: 0.058

* * *

Biological target: muscle-like nicotinic receptors (human clonal line TE671/RD) (Homo sapiens, UniProt P02708+P07510+Q07001)
Construct: these cells express muscle-like nicotinic receptors; endogenous in cells; host or cells: TE671/RD (human embryonal rhabdomyosarcoma clonal line), intact cells
Sequence (P02708 21-457): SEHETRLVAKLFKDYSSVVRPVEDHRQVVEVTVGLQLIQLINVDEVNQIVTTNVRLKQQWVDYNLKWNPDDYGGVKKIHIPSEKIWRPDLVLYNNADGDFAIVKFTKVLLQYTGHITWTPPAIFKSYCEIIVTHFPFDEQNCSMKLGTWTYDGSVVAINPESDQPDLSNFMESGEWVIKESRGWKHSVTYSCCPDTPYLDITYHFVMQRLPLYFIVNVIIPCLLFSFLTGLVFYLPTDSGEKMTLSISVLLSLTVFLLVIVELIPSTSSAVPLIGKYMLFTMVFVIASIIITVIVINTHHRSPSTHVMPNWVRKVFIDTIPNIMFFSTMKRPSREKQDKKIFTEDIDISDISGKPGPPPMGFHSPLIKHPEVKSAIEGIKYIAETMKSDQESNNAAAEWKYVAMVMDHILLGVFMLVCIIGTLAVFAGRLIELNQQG
Sequence (Q07001 22-517): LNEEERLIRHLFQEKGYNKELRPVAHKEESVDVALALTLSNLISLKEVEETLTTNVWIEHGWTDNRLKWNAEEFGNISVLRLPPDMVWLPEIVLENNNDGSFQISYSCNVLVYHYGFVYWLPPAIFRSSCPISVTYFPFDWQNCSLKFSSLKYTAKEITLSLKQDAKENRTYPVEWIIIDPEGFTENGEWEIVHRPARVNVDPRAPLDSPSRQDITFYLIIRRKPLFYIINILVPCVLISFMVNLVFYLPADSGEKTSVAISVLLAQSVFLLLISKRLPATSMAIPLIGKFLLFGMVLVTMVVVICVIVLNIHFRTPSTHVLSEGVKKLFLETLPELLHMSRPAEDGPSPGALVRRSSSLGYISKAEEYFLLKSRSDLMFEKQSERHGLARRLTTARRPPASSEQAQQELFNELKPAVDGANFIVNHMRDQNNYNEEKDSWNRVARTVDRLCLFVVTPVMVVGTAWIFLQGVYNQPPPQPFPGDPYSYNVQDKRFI
Sequence (P07510 23-517): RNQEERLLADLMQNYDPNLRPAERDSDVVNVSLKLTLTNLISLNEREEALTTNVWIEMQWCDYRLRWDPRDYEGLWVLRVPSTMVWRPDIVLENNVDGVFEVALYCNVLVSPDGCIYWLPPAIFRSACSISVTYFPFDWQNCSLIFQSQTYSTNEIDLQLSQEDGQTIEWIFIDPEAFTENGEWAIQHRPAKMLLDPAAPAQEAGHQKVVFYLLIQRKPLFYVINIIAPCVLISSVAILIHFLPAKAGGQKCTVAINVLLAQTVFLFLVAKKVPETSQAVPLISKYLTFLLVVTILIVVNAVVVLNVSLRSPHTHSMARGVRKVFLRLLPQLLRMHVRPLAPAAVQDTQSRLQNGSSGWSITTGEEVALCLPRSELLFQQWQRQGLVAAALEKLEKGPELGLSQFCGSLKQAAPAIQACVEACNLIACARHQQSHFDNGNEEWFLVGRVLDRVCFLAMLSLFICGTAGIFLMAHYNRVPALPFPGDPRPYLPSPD
Type: cell-based
Conditions: te671/rd cells
Could you label it 1 if measured Muscle Effect is 7 or higher, and -1 otherwise?

Known results for compounds:
- Compound: "CCN1[C@H](c2cccnc2)[C@@H]2C=C[C@H]1C2 (relative stereo)"
  Group label: 1
- Compound: "CN1[C@H](c2cncc(Br)c2)[C@@H]2C=C[C@H]1C2 (relative stereo)"
  Group label: -1
- Compound: "CN1[C@H]2C=C[C@H](CC2)[C@@H]1c1cccnc1 (relative stereo)"
  Group label: 1

Query :: Please tell me: is the compound C1=C[C@H]2CC[C@@H]1[C@H](c1cccnc1)N2 (relative stereo) at or over 7 in terms of Muscle Effect?
Result :: 1

Query :: Item: CN1[C@H](c2cccnc2)[C@@H]2C=C[C@H]1CC2 (relative stereo)
Result :: -1

Query :: Quick one: O=C(O)/C=C/C(=O)O.c1cncc(C2NC3CCC2CC3)c1 (racemic)
Result :: 1

Cited source for all entries: patent US5922723A
